# Measured On: Mt-KasB (Mycobacterium tuberculosis)
# Construct: made in house
# Sequence (P9WQD7 1-417): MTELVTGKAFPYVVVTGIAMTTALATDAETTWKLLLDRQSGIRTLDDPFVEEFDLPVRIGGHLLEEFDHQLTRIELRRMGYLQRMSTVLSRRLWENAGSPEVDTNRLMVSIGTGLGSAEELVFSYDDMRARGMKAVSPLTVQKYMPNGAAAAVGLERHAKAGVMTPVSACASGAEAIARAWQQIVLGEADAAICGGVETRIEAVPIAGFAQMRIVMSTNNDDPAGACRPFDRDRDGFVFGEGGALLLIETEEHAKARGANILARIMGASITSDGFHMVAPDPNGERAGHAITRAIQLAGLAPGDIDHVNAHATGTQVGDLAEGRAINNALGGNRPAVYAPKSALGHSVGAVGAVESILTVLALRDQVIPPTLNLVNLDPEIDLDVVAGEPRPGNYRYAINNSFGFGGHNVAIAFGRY
# Experiment: biochemical
Measure: IC50 (µM)

{"Compound": "CC12C[C@@]34C=CC(=O)[C@@](C)(CCC(=O)Nc5c(O)ccc(C(=O)O)c5O)C3[C@H](CC1C4)O2 (stereo partly shown)", "Measure": "IC50", "Unit Abbrev": "µM", "Observed": 9.51}
